Please respond with reported inhibition for every item in the list.
target: Tyrosine-protein kinase ABL1 (Homo sapiens) + Ras and Rab interactor 1 (Homo sapiens) (UniProt P00519+Q13671); assay: Rin1-Abl binding inhibitor retest, confirmation, biochemical, TR-FRET (AID 602124); conditions: purified proteins, at 7.35 µM, stronger effect = higher value
Sequence (P00519 whole entry, looked up): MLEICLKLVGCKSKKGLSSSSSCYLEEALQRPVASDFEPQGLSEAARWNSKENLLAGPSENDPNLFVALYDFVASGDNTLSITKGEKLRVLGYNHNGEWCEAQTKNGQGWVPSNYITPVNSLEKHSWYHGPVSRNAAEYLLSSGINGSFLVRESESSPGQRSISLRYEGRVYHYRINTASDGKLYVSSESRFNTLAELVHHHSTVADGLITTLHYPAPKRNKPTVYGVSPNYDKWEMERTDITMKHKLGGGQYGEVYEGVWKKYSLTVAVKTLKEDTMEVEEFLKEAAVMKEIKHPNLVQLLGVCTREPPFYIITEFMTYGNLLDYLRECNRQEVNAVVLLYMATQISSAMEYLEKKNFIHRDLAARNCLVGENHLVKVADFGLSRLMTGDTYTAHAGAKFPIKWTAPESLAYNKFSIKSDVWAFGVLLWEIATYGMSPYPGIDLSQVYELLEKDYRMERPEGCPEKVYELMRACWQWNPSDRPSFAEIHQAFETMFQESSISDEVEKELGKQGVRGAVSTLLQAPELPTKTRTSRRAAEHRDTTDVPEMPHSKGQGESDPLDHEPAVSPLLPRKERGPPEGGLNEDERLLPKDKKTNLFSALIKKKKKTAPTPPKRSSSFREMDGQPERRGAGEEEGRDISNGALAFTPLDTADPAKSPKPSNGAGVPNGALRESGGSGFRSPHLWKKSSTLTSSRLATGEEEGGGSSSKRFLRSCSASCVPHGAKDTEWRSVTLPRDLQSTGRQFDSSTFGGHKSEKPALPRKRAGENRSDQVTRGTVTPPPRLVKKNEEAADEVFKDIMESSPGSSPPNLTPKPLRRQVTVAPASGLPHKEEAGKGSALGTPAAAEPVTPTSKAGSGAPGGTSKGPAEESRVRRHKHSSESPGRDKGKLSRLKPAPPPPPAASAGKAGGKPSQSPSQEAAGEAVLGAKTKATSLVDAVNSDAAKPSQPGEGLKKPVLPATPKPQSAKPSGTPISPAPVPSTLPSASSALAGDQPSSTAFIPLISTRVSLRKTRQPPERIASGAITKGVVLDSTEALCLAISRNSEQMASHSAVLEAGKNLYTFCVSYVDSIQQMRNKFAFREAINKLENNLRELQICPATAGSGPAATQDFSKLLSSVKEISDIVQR
Sequence (Q13671 whole entry, looked up): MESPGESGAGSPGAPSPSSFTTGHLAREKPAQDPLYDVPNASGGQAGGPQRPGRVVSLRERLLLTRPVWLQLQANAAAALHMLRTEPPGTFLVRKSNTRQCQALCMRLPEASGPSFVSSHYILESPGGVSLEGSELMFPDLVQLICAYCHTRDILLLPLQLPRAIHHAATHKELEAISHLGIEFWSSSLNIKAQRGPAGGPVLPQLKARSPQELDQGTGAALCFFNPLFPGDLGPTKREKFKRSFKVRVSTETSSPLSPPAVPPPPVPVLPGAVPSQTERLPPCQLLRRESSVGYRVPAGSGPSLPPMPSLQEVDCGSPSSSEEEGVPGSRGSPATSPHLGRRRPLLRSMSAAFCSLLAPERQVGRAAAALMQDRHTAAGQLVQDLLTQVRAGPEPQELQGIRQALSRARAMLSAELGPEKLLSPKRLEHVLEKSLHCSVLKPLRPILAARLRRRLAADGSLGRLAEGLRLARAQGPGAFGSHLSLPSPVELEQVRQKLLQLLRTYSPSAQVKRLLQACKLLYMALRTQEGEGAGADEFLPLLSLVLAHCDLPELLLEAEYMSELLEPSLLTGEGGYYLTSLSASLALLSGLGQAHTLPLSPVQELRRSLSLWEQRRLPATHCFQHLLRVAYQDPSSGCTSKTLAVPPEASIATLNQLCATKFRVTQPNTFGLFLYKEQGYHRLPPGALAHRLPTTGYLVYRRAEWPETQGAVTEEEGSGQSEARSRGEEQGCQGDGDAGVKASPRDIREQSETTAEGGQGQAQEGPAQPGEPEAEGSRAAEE
Out of some 1,300 compounds screened, about 630 (48%) were called active. So high a share suggests a set chosen from earlier hits. Not all results are given here.

Entry `O=c1ccc2c(-c3ccccc3S(=O)(=O)O)c3ccc(O)c(O)c3oc-2c1O` , inhibition reported as 67% (active)

Entry `CN(CC(=O)Nc1ccc(F)cc1)CC(=O)Nc1ccc(Cl)c(S(=O)(=O)N2CCOCC2)c1` ; inhibition = 0.32% (inactive)

Please fill in: inhibition reported for `COc1ccc(CNC(=O)c2cc(C(=O)C3CC3)c[nH]2)cc1` = 1.47% (inactive)

// field: inhibition; key: `Cc1ccccc1C(=O)N1CCC(C(=O)Nc2ccc(S(=O)(=O)N(C)C(C)C)cc2)CC1` ; value = 9.43% (active)

`NS(=O)(=O)c1ccc(CCNC(=O)Nc2ccc(Cl)cc2)cc1` yielded inhibition of -1.53% (inactive)

What the record says about Nc1nc2n(n1)C(c1ccco1)CC(c1ccc(Cl)c(Cl)c1)N2 (stereo not given) : inhibition is 0.66% (inactive)

What the record says about `Oc1cccc2cc(-c3ccncc3)cnc12` : inhibition is 20.6% (active)

Record `O=C(NNc1c2ccccc2nc2ccccc12)c1cc2ccccc2cc1O` . Reported inhibition: 1.57% (inactive)

The compound identified as `O=c1c2c(nc3n1CCCCC3)sc1c(O)cccc12` registered its inhibition at 14.5% (active)

The compound `CCOC(=O)N1CCN(C(=O)C2CCN(c3ncnc4c3sc3cccc(F)c34)CC2)CC1` showed inhibition equal to 28.5% (active)

====

target: Tyrosine-protein kinase ABL1 (Homo sapiens) + Ras and Rab interactor 1 (Homo sapiens) (UniProt P00519+Q13671); assay: Rin1-Abl binding inhibitor retest, confirmation, biochemical, TR-FRET (AID 602124); settings: purified proteins, at 7.35 µM
About 630 (48%) of roughly 1,300 compounds were called active. Rule as the data show it: active = inhibition above about 6.5%; inactive = the rest. The set was probably picked from earlier hits. Not all results are given here.
Give your call using only these classes: 1 = active, -1 = inactive

Request: Which result was noted for this compound in the test: `COC(=O)c1ccc(COC(=O)C2CCN(S(=O)(=O)c3c(Cl)cccc3Cl)CC2)o1`
Response: 1

Request: Field: outcome | Entry: Cc1ccc(C(NC(=O)C2CCN(CCOc3ccc(Cl)cc3Cl)CC2)c2ccccn2)cc1 (centres undefined)
Response: -1

Request: Dear all, I need the recorded test outcome for `C[C@@H]1CN([C@H](C)CO)S(=O)(=O)c2ccc(C#C[C@@H](C)O)cc2O[C@@H]1CN(C)Cc1ccc(-c2ccccc2)cc1` , thank you.
Response: 1

Request: Status in this test for O=C(CC1SCCNC1=O)Nc1ccc(Cl)cc1 (centres undefined) ?
Response: 1

Request: Outcome? `O=c1cc(CO)oc(CN2CCC(Cc3ccccc3)CC2)c1O`
Response: -1

Request: What was the test verdict on `CN(Cc1c(F)cccc1Cl)C(=O)CNC(=O)c1ccc2c(c1)OCO2` ?
Response: 1

Request: Per the assay record, what outcome was assigned to `CC(=O)Nc1ccc(CN2CCC(Oc3ccc(C(=O)N4CCCC4)cc3)CC2)cc1` ?
Response: -1

Request: Hi, do you know how `C=CCn1cc(C(=O)NCc2ccc(Cl)cc2)c(=O)c2cc(S(=O)(=O)N(CC)CC)ccc21` came out in this test?
Response: -1

Request: What classification did `Cc1cc2ccccc2n1CCNC(=O)COc1ccc2ccccc2c1` end up with in this test?
Response: -1

Request: How was Cc1cc(NC(=O)CSCC(=O)NC(C)c2ccccc2)no1 (centres undefined) classified in this test?
Response: -1

Request: Called result for `O=C(CNCc1ccco1)Nc1cc(S(=O)(=O)N2CCOCC2)ccc1N1CCCC1`
Response: -1

Request: Could you please tell me the result logged for `CN(C)c1ccc(N/C=C/C(=O)C(F)(F)F)cc1` in this assay?
Response: -1

Request: Query: recorded result category for `Cc1ccccc1CN1C[C@@H]2C[C@@H](c3ccc4nsnc4c3)N3CCC[C@@]23C1=O` in this test
Response: 1

Request: Please indicate how the test categorized CC(OC(=O)c1ccccc1NCCO)C(=O)Nc1ccnn1C(C)C (centres undefined) .
Response: 1

Request: Hi, do you know how `O=C(c1cn(-c2ccccc2)nc1-c1cc2ccccc2oc1=O)N1CCOCC1` came out in this test?
Response: -1

Request: # lookup: test call for `CC(C)CNS(=O)(=O)c1ccc(C(=O)Nc2ccc3c(c2)OCO3)cc1`
Response: -1

Request: Which outcome was assigned to C#CCOCCOCCOCCNc1nc(N2CCN(C(=O)C(Cc3ccc(O)cc3)n3cc(C(N)CC(C)C)nn3)CC2)nc(N2CCN(C(=O)C(Cc3ccc(O)cc3)n3cc(C(N)C(C)CC)nn3)CC2)n1 (centres undefined) in this test?
Response: 1

Request: Would you mind telling me which call this test gave `OC[C@@H]1CN(Cc2ccc(Cl)cc2)C[C@H](n2cnc3c(NCc4ccncc4)ncnc32)O1` ?
Response: -1

Request: Outcome? `COc1cc(C(=S)N2CCOCC2)ccc1O`
Response: -1

====

target: Tyrosine-protein kinase ABL1 (Homo sapiens) + Ras and Rab interactor 1 (Homo sapiens) (UniProt P00519+Q13671); experiment: Rin1-Abl binding inhibitor retest, confirmation, biochemical, TR-FRET (AID 602124); settings: purified proteins, at 7.35 µM
About 630 (48%) of roughly 1,300 compounds were called active. Cut-off read from the data, not from the text of the source: active = inhibition above about 6.5%; inactive = the rest. The set was probably picked from earlier hits. Only a sample is shown.
Form entry, call: pick from label 1 (active), label 0 (inactive)

Request: Per the assay record, what outcome was assigned to `Cc1nn(-c2ncc(C(F)(F)F)cc2Cl)c(=O)n1-c1ccccc1` ?
Response: label 0

Request: Outcome logged for CSc1ncnc2c1ncn2CC(=O)C1CCC2C3CCC4=CC(=O)CCC4(C)C3CCC12C (stereo not given) in this assay:
Response: label 1

Request: Could you kindly confirm the outcome this assay logged for `O=C(COc1ccc(S(=O)(=O)NCCc2ccccc2)cc1)N1CCCC1` ?
Response: label 0

Request: Field: outcome | Entry: `Oc1c(CN2CCN(c3ccc(F)cc3)CC2)cc(Cl)c2cccnc12`
Response: label 0

Request: Record lookup: outcome of this test for CCOc1ccc(S(=O)(=O)N2CCCCC2)cc1NC(=O)CN1CCCC1c1cccs1 (stereo not given) ?
Response: label 0

Values from PubChem BioAssay AID602124
